Assay: Pharmacokinetics of probe substrates in rats with or without poziotinib pre-treatment
Details: male, Sprague-Dawley, rat, in vivo, po, 10 mg/kg, Cmax, Treated group: oral probe cocktail (10 mg/kg; tolbutamide 1 mg/kg) after 7 days oral poziotinib 5 mg/kg, rats, n = 6
ATTRIBUTE_MEASURED: Cmax
Please answer using a numeric value trailed by its unit.

(Q) Given the compound Cc1ncc2n1-c1ccc(Cl)cc1C(c1ccccc1F)=NC2 , what is its reported Cmax?
(A) 582 ng/mL

====

Target: cyp2d1 (Rattus norvegicus, UniProt P10633)
Sequence (P10633 whole entry): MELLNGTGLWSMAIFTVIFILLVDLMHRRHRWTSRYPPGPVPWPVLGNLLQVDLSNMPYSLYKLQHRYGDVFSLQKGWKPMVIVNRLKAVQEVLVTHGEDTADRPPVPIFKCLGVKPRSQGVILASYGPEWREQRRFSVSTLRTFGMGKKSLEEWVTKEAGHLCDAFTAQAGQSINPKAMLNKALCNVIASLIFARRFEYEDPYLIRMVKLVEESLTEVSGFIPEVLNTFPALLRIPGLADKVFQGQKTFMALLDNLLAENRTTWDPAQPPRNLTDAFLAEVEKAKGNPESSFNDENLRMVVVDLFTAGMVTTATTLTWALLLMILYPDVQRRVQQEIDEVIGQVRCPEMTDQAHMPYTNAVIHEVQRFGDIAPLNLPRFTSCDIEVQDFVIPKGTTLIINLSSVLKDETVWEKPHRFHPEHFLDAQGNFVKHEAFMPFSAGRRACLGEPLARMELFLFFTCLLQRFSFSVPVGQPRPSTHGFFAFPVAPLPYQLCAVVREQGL
Assay: Cocktail method IC50 in rat liver microsomes, dextromethorphan probe
Assay type: in vitro ADME
Conditions: pH 7.4, probe dextromethorphan (10 μM), 10 μM dextromethorphan, cocktail, 30 min
ATTRIBUTE_MEASURED: IC50 at 30 min (µM)
Kindly provide the numeric value in µM only, without the unit symbol.

(Q) Can you look up the measured IC50 at 30 min of C=CC(=O)N1CCC(Oc2cc3c(Nc4ccc(Cl)c(Cl)c4F)ncnc3cc2OC)CC1 [Poziotinib] for me?
(A) 62
